Attribute: melting point

compound: CC(C)(C)c1ccc(C2C=C(c3ccccc3)NN2c2ccccc2)cc1 (stereo unspecified)
readout type: melting point
assay value: 150 to 153 °C
//
compound: N#Cc1ccn2ccccc12
readout type: melting point
assay value: 53 to 54 °C
//
compound: Cc1nc(N2CCN(CC(C)C)C2=O)sc1C(=O)NCc1cnn(C)c1
readout type: melting point
assay value: 155 to 158 °C

Need melting point, item CCCCCCCCCCN1C(=O)C2CC(c3ccc(N)cc3)(C2)C1=O
81.5 to 82.5 °C

Need melting point, item COc1ccc(C=Cc2ccc(O)c(OC)c2)cc1
163 to 166 °C

###

Attribute: melting point

compound: COC(=O)CCCCCCCCCCCCC1=C(C)C(=O)C(OC)=C(OC)C1=O
readout type: melting point
assay value: 54 °C
--
compound: O=S1(=O)CCN2C=CC(Cl)=C(c3ccc(Oc4ccccc4)cc3)C2=N1
readout type: melting point
assay value: 283 to 284 °C
--
compound: Oc1nn(-c2ccccc2)cc1CCc1cscn1
readout type: melting point
assay value: 152 to 153 °C
--
compound: CC1(C)Oc2ccc(C#N)cc2[C@@H](N2CCCC2)[C@@H]1O (relative stereo)
readout type: melting point
assay value: 173 to 174 °C
--
compound: Nc1c(Cl)cc(Nc2ncnc3cnc(N[C@H]4CC[C@H](C(=O)N5CCCC5)CC4)nc23)cc1Cl
readout type: melting point
assay value: 228 to 230 °C

Need melting point, item CC(C)CCC1(c2ccccc2)CC(O)=C(Sc2ccccc2)C(=O)O1 (centres undefined)
154 to 155 °C

Need melting point, item O=C(O)CCCCCOc1cc(-c2ccc(NC(=O)C(F)(F)F)cc2)cc(-c2ccccc2)n1
178 to 180 °C

Need melting point, item N#Cc1ccc(-c2ccc3cnc(Nc4ccc(N5CCOCC5)cc4)nn23)cn1
280 to 283 °C

Need melting point, item COc1cc(/C=C/[N+](=O)[O-])cc(OC)c1
132 °C

Need melting point, item O=S(=O)(CCl)N(Cc1cccnc1)C1CCCCC1
67 to 72 °C

Need melting point, item Cn1cc(-c2cc3cccnc3[nH]2)c2cc(OC3(C(=O)O)CCC3)ccc21
168 to 169 °C

Need melting point, item COC(=O)C(C(=O)OC)c1ccc2c(c1)C(=O)c1cc3ccccc3cc1C2=O
211 to 215 °C

Need melting point, item CC(=O)NCCn1ccc2ncnc(Nc3ccc(Oc4cccc5sncc45)c(Cl)c3)c21
222 to 224 °C

Need melting point, item Cc1cc2c(cc1CN1CCN(C)CC1)-c1[nH]nc(-c3ccsc3)c1C2
210 to 212 °C

Need melting point, item COC(=O)c1sccc1S(=O)(=O)NC(=O)Nc1nc(OC)cc(OC)n1
191 to 193 °C

Need melting point, item O=C1c2ccccc2C(=O)N1Cc1noc(-c2ncn3c2[C@@H]2CCN2C(=O)c2ccccc2-3)n1
290 to 292 °C

Need melting point, item CC(=O)Nc1cccc(Oc2cc(-c3ccc(C(F)(F)F)cc3)ncn2)c1
202 to 205 °C

Need melting point, item COc1ccc2cc(COC(C)(C(=O)O)C(F)(F)F)ccc2c1 (centres undefined)
117 to 119 °C

Need melting point, item Cc1ccnc(Nc2nc(-c3c[nH]nc3C(=O)c3ccccc3)cs2)n1
254 to 255 °C

###

readout type: melting point

Some compounds with recorded melting point:
compound: CCOc1cc(C=CC(C)=O)ccc1O
assay value: 98 to 100 °C

compound: CC1(CN)CCN(c2c(F)cc3c(=O)c(C(=O)O)cn(C4CC4)c3c2Cl)C1 (configuration not stated)
assay value: 189 to 191 °C

Need melting point, item O=C1C2CCCC1CN(Cc1ccccc1)C2
48 to 50.5 °C

Need melting point, item CCc1ncnc(NC2CCc3cc(O)ccc3C2)c1Cl (configuration not stated)
178 °C

Need melting point, item O=C(Nc1ccc(F)nc1)OCC(Cl)(Cl)Cl
114 to 115 °C

Need melting point, item CC(=O)Sc1c(C)nn2c3ccccc3n(C(C)=O)c12
191 to 193 °C

Need melting point, item O=C(NCCN1CCOCC1)Nc1nc2ccc(OCc3c(Cl)cccc3Cl)cc2s1
268 to 271 °C

Need melting point, item CC1(C(=O)Cn2cncn2)CC1
58 °C

Need melting point, item Oc1ccc2c(c1)CC(O)C2 (configuration not stated)
112 to 115 °C

Need melting point, item Nc1ccc(C(=O)c2ccc(N)cc2)cc1
241 °C

Need melting point, item CC(C)(C)OC(=O)NCCCn1nnnc1S
75 to 77 °C

Need melting point, item O=S(=O)(c1ccc(I)cc1)N1CCOCC1
141 to 144 °C

###

Attribute: melting point

Some compounds with recorded melting point:
compound: CNC(=O)c1ccc(-c2ccc3nnn(Cc4ccc5ncccc5c4)c3n2)cc1
assay value: 220 to 222 °C
//
compound: COc1ccc(-c2cc(=S)n(Cc3ccc(F)cc3)nc2-c2ccc(OC)cc2)cc1
assay value: 137 to 138 °C
//
compound: CC(C)(C)c1cc(-c2nc(C(Cl)(Cl)Cl)no2)cc(C(C)(C)C)c1O
assay value: 100 to 102 °C

Shift focus to the following entry.
Need melting point, item O=c1[nH]c2ccccc2c2c(C(O)CC3CCNCC3)n(-c3ccccc3)nc12 (centres undefined)
258 to 261 °C

###

Attribute: melting point

Some compounds with recorded melting point:
compound: CCCCCCCCOc1ccc(C(C)(C)CC(C)(C)C)cc1S(=O)(=O)NCC(C)c1nn2nc(C)c(Cl)c2[nH]1 (centres undefined)
melting point: 135 to 137 °C
--
compound: O=C(O)CNC(=O)Nc1ccc(Cl)cc1
melting point: 218 °C
--
compound: CCCN(CCc1c[nH]c2ccc(F)cc12)C1COc2c(F)ccc(C(N)=O)c2C1 (centres undefined)
melting point: 125 °C
--
compound: CC1(C)[C@@H]2CC3[C@H](C(=O)O)[C@@]3(C)C[C@@H]21 (some centres undefined)
melting point: 86 °C
--
compound: O=C(Nc1ccc(-c2cnc(-c3ccc(NC(=O)C4CCCCCC4)cc3)[nH]2)cc1)c1cccnc1
melting point: 256 to 258 °C

Need melting point, item Cc1c(CC[Si](Cl)(Cl)Cl)c(CC[Si](Cl)(Cl)Cl)c(C)c(CC[Si](Cl)(Cl)Cl)c1CC[Si](Cl)(Cl)Cl
220 to 224 °C

Need melting point, item CSc1ccc(C(=O)Nc2ccccc2)cc1Nc1cccc(C(F)(F)F)c1
169 to 170 °C

Need melting point, item Cc1ccc(S(=O)(=O)Nc2ccc(C#N)cc2[N+](=O)[O-])cc1
150 to 152 °C

Need melting point, item CCOC(=O)CN1CCN(c2cc3c(cc2F)c(=O)c(C(=O)O)cn3C2CC2)CC1
192 to 194 °C

###

Attribute: melting point

Some compounds with recorded melting point:
compound: C(C#Cc1cccc2ccccc12)#Cc1cccc2ccccc12
assay value: 176 to 177 °C

compound: Cc1cc(-c2nc3ccccc3s2)ccc1N
assay value: 193 to 195 °C

compound: COC1(c2ccc(N(C)C)cc2)OC(=O)c2cc(N(C)C)ccc21 (stereo unspecified)
assay value: 140 to 147 °C

Need melting point, item Cc1cc(C)c(C=C(C(=O)O)c2csc(N)n2)c(C)c1
> 200 °C

Need melting point, item BrCCCCCc1nc2ccccc2[nH]1
134 to 136 °C

Need melting point, item CNC(=O)c1ccccc1C(=O)NCSc1ccncc1
118 to 121 °C

Need melting point, item CCCn1c(=O)n(-c2ccc3c(c2)OCO3)c2ncc(F)cc21
153 to 154 °C

Need melting point, item O=C1Cc2ccccc2C(c2ccccc2F)N1 (stereo unspecified)
167 to 169 °C

Need melting point, item CCCCOC(=O)C1C(C(C)=O)C(=O)N1C(Cc1ccc(OC)cc1)Cc1ccc(OC)cc1 (stereo unspecified)
92.5 to 94 °C

Need melting point, item COc1cn(-c2ccc(N3CC(F)(F)C3)cc2F)nc(-c2ccnn2-c2ccccc2)c1=O
204 to 206 °C

Need melting point, item Cc1nc2c3c(ccc2n1C)[C@H]1OCCO[C@@H]1[C@@H](c1ccccc1)O3
307 °C

Need melting point, item NC(=NO)c1nn(-c2c(Cl)cc(C(F)(F)F)cc2Cl)c(N)c1S(=O)(=O)C(F)(F)F
205 to 206 °C

Need melting point, item O=C(NC1CCN(CCCCc2cc(F)cc3c2-c2ccc(F)cc2C3C(=O)NCC(F)(F)F)CC1)c1ccccc1 (stereo unspecified)
177 to 179 °C

Need melting point, item CCCN(c1ccncc1)n1ccc2cc(OC(=O)NCc3ccccc3)ccc21
156 to 158 °C

Need melting point, item CC(C)(C)OC(=O)NCCCCn1cnc2c(Cl)nc3ccccc3c21
148 to 150 °C

Need melting point, item COc1cc(Nc2nccc(NS(=O)(=O)c3ccccc3)n2)cc(OC)c1OC
164 °C

Need melting point, item O=c1[nH]c2ncc(-c3ccc(-c4nn[nH]n4)cc3)nc2n1CC1CCCCC1
> 400 °C

Need melting point, item OCc1cccc2cc(-c3ccccc3)sc12
125 to 126 °C

Need melting point, item CCCCc1nc(C(C)(O)CC)c(C#N)[nH]1 (stereo unspecified)
139 to 142 °C

Need melting point, item CSc1cc(OCCC[Si](C)(C)C)c(Cl)cc1[N+](=O)[O-]
51 to 53 °C

Need melting point, item COC(=O)CCCC(=O)NS(=O)(=O)c1ccc(N)cc1
> 260 °C
